Item-by-item account of IC50 (µg/ml) with constrains
# system-under-test: HIV Env of isolate Ce2060_G9 (clade C) (HIV)
# experimental-protocol: cell-based or functional assay
Quick reminder: number only, in µg/mL, skip the unit.

Before answering, review these 3 worked examples.
binder: ePGDM9 (antibody, V domains shown) VH: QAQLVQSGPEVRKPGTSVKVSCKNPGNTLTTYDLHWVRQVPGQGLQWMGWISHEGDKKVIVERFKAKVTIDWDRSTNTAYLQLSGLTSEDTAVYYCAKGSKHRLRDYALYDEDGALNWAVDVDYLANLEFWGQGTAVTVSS VL: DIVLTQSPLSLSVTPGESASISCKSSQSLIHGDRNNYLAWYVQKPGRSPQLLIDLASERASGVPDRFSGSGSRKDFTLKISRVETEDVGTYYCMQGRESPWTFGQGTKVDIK
IC50 (µg/ml) with constrains / µg/mL: 0.134

binder: PGDM1400 (antibody, V domains shown) VH: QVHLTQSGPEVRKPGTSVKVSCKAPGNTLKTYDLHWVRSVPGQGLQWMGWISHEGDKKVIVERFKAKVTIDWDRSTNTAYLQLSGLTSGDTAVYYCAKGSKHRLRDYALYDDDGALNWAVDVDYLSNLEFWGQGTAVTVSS VL: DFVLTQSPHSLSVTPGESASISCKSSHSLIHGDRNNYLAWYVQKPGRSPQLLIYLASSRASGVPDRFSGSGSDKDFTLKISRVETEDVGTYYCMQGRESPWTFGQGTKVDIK
IC50 (µg/ml) with constrains / µg/mL: 0.025

binder: ePGDM5 (antibody, V domains shown) VH: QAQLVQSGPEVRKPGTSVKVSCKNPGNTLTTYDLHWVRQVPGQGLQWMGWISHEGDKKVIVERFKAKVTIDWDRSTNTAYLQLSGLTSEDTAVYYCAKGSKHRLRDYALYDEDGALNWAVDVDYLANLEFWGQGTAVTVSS VL: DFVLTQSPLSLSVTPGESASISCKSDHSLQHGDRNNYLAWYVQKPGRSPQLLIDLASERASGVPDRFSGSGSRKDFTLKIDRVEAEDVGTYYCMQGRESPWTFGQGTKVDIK
IC50 (µg/ml) with constrains / µg/mL: 0.011

Would you mind telling me what IC50 (µg/ml) with constrains value was observed for ePGDM13 (antibody, V domains shown) VH: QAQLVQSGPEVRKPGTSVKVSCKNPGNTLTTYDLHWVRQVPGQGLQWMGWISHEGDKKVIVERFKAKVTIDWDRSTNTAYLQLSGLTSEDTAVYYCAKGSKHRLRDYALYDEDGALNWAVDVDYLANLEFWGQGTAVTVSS VL: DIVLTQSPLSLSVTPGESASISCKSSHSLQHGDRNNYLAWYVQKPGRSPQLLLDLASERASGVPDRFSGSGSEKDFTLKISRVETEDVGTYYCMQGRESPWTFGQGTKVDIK ?
0.018
